Data origin, for the record: patent US20250049798A1

Target: HiBiT tagged Wee1 (Homo sapiens, UniProt P30291)
Sequence (P30291 whole entry): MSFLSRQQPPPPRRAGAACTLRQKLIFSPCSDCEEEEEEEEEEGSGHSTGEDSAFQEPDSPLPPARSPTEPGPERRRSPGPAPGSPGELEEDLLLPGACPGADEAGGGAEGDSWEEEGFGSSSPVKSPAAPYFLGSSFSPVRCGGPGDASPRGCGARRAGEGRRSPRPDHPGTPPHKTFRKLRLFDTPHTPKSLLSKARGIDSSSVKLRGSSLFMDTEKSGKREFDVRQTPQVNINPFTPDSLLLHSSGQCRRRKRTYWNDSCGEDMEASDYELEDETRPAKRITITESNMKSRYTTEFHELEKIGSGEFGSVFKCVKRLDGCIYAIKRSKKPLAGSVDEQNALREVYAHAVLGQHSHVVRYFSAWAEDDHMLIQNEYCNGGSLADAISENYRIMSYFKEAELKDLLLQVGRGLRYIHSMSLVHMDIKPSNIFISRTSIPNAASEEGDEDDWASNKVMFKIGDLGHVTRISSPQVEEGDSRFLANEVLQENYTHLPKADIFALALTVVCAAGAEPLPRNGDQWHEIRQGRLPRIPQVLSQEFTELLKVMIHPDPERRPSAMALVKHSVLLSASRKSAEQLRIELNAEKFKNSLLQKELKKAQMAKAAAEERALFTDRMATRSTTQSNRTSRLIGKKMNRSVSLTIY
Assay: Wee1 protein degradation assay (HiBiT assay)
Assay type: cell-based
Details: engineered HT-1080 cells, 20 hours
ASSAY_READOUT: DC50

Entry C=CCn1c(=O)c2cnc(Nc3ccc(N4CCN(CC5CCN(c6ccc(NC7CCC(=O)NC7=O)cc6F)CC5)[C@H](C)C4)cc3)nc2n1-c1ccc2c(n1)[C@@](O)(CC)CC2 (stereo partly drawn) [Compound 163] ; DC50 = < 0.1 µM

# DC50 (compound: C=CCn1c(=O)c2cnc(Nc3ccc(N4CCN(CC5CCN(c6cc7c(cc6F)c(N6CCC(=O)NC6=O)nn7C)CC5)CC4)nc3)nc2n1-c1ccc2c(n1)[C@](C)(O)CC2 [Compound 197] ) is < 0.1 µM

For record C=CCn1c(=O)c2cnc(Nc3ccc(N4CCC5(CC4)CCN(C4CN(c6ccc(NC7CCC(=O)NC7=O)cc6F)C4)CC5)cc3)nc2n1-c1ccc2c(n1)[C@@](O)(CC)CC2 (stereo partly drawn) [Compound 171] the listed DC50 is < 0.1 µM
